Molecular target: AP2-associated protein kinase 1 (Homo sapiens, UniProt Q2M2I8); also: in the data inactive means no Kd found up to 30 µM
Sequence (Q2M2I8 whole entry): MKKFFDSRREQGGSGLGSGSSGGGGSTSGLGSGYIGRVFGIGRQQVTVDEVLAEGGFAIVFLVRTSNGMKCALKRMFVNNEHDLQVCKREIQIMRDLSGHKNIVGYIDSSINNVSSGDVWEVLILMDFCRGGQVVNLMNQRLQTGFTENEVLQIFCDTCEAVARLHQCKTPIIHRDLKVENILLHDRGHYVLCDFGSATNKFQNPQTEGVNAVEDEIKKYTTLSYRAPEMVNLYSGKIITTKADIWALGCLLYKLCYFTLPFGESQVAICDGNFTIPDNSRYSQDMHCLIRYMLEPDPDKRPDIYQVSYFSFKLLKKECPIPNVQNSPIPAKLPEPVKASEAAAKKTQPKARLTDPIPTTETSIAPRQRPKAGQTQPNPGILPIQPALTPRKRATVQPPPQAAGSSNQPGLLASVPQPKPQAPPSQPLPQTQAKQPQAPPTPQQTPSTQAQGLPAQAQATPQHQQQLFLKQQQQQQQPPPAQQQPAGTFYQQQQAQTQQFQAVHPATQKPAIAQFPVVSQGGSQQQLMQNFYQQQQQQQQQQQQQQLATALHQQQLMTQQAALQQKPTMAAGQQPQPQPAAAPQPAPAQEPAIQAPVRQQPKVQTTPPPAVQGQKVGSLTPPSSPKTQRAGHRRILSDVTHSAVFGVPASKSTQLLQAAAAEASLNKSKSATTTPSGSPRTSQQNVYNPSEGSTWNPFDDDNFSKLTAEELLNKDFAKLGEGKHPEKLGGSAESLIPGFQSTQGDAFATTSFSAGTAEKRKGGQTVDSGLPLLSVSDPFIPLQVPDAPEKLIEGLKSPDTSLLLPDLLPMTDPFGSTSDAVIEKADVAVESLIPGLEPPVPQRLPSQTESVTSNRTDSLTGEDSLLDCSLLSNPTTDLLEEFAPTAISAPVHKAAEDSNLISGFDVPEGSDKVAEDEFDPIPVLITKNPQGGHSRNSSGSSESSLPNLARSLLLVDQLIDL
Activity calls are given as the source filed them.
Possible outcomes: True (active), False (inactive)

# compound, cat
data = [
    ("CNC(=O)c1cccc(-c2ccc3c(N4CCOC[C@@H]4C)nc(N4CCOC[C@@H]4C)nc3n2)c1", "False"),
    ("O=C(NOC[C@H](O)CO)c1ccc(F)c(F)c1Nc1ccc(I)cc1F", "False"),
    ("COc1cc2ncnc(Nc3ccc(O)cc3)c2cc1OC", "True"),
    ("Cn1c(=O)c(F)c(Nc2ccc(I)cc2F)c2c(=O)n(C[C@@H](O)CO)cnc21", "False"),
    ("COc1cccc(Nc2ncnn3ccc(CN4CC[C@@H](N)[C@H](O)C4)c23)c1", "True"),
    ("CC[C@@](C)(Nc1ccnc(-c2c[nH]c3ncccc23)n1)C(=O)NCC(F)(F)F", "True"),
    ("Cc1ccc(C(=O)Nc2ccc(Oc3cc4cnn(C)c4cc3-c3cn[nH]c3)c(F)c2)c(=O)n1-c1ccc(F)cc1", "False"),
    ("NC[C@@](O)(c1ccc(Cl)cc1)c1ccc(-c2cn[nH]c2)cc1", "False"),
    ("O=S(=O)(c1cccc2cnccc12)N1CCCNCC1", "False"),
    ("Cc1cc(-c2cc(OC(=O)c3ccccc3)ccc2Cl)cc2nnc(Nc3ccc(OCCN4CCCC4)cc3)nc12", "False"),
    ("CCOc1ccn(-c2ccc(F)cc2)c(=O)c1C(=O)Nc1ccc(Oc2ccnc(N)c2Cl)c(F)c1", "False"),
    ("O=C(O)c1ccc2c(c1)nc(Nc1cccc(Cl)c1)c1ccncc12", "False"),
    ("Cn1cc(-c2[nH]c3cc(NC(=O)[C@H](N)C4CCCCC4)cc4c3c2C=NNC4=O)cn1", "True"),
    ("CNC(=O)c1cc(COc2nnc(Nc3ccc(Cl)cc3)c3ccoc23)ccn1", "False"),
    ("Cc1cc(Nc2nc(N[C@@H](C)c3ncc(F)cn3)ncc2Cl)n[nH]1", "False"),
    ("C=CCN(/C=C1/C(=O)O[C@H](COC)[C@@]2(C)C1=C(O)C(=O)C1=C2[C@H](OC(C)=O)C[C@]2(C)C(=O)CC[C@@H]12)CC=C", "False"),
    ("COc1ccc2c(OCc3nnc4ccc(-c5ccccc5)nn34)ccnc2c1", "False"),
    ("COc1cc(F)c(F)c(Nc2ccc(I)cc2F)c1NS(=O)(=O)C1(C[C@H](O)CO)CC1", "False"),
    ("O=S(=O)(c1cccc2c(O)nccc12)N1CCCNCC1 [HYDROXYFASUDIL]", "False"),
    ("O[C@H]1CC[C@H](Nc2ncc3nc(Nc4c(F)cc(F)cc4F)n([C@H]4CCOC4)c3n2)CC1", "False"),
    ("FC(F)(F)c1ccc(CNc2ccc(Cc3c[nH]c4ncc(Cl)cc34)cn2)cn1", "True"),
    ("CN1CCN(c2nc(C3=C(c4c[nH]c5ccccc45)C(=O)NC3=O)c3ccccc3n2)CC1", "False"),
    ("C=CC(=O)Nc1cccc(Nc2nc(Nc3ccc(N4CCN(C(C)=O)CC4)cc3OC)ncc2C(F)(F)F)c1", "False"),
    ("CC1(COc2ccc3c(c2)ncn3-c2ccc3cccc(N4CCC(N)CC4)c3n2)COC1", "False"),
    ("CNC(=O)c1ccc(Nc2ncc(C(F)(F)F)c(NCc3nccnc3N(C)S(C)(=O)=O)n2)cc1", "False"),
    ("Cn1c(=O)n(-c2ccc(C(C)(C)C#N)cc2)c2c3cc(-c4cnc5ccccc5c4)ccc3ncc21", "False"),
    ("C[C@@H]1COC(Nc2ccc3ncnc(Nc4ccc(OCc5nccs5)c(Cl)c4)c3c2)=N1", "False"),
    ("COc1cccc2cc(-c3nc([C@H]4CC[C@H](C(=O)O)CC4)n4ncnc(N)c34)[nH]c12", "False"),
    ("CN(c1ncccc1CNc1nc(Nc2ccc3c(c2)CC(=O)N3)ncc1C(F)(F)F)S(C)(=O)=O", "False"),
    ("COc1cc2nccc(Oc3ccc(NC(=O)C4(C(=O)Nc5ccc(F)cc5)CC4)cc3)c2cc1OC [CABOZANTINIB]", "False"),
]
